Target: PUM2 (human)
Sequence: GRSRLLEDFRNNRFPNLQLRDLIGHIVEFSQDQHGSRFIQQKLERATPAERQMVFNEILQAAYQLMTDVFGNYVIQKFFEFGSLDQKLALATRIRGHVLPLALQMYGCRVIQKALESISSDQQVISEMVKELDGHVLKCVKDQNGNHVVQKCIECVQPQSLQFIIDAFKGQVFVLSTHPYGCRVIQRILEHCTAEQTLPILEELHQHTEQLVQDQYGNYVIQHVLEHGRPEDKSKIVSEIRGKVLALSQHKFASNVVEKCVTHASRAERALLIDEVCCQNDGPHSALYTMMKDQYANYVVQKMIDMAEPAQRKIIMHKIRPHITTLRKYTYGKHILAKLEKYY
Assay: RBNS
Details: RBNS: 20 mM HEPES-KOH pH 7.9, 100 mM KOAc, 3.5 mM Mg(OAc) (magnesium acetate), 0.05% CHAPS, 2 mM DTT, 8% glycerol, BSA, tRNA, 25 C 2 h; filter binding: 25 mM …
pKd: −log10 of the molar value.
Quantity Measured: pKd

{"Construct Sequence": "UGUAUAUA [PUM consensus site]", "Target Or Test System": "PUM2 (human)", "Result Number": 9.49}

* * *

Reported Kd by item:
Biological target: FLAG-Ago1 (Drosophila melanogaster) (UniProt A1Z9J5)
Sequence (A1Z9J5 entry or part of it): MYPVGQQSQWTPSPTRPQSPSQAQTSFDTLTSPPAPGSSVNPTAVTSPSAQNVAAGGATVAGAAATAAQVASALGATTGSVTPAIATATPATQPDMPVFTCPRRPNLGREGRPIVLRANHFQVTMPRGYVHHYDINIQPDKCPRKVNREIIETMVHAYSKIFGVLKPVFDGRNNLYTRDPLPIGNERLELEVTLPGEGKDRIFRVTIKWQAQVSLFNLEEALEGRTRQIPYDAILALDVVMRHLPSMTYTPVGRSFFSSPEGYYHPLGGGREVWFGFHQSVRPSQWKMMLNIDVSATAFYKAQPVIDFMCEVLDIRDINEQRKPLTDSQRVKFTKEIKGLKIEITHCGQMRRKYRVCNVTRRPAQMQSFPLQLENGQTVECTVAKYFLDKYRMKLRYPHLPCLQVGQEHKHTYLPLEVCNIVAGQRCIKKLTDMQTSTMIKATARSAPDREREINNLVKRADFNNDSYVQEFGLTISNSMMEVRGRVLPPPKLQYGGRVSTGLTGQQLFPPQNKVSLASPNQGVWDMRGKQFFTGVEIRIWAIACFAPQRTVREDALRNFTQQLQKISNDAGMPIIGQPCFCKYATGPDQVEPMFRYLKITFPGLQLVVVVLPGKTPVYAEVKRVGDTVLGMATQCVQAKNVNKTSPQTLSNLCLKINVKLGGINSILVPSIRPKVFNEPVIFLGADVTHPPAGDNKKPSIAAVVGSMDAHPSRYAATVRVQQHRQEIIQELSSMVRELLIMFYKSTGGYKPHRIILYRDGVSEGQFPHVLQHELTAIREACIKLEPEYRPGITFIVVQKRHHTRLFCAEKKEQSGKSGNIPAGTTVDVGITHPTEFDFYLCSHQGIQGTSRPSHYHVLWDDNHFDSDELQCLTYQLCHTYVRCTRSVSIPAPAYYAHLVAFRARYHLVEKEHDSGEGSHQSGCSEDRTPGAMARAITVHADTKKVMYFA
Assay: filter binding
Settings: guide 5' phosphate; RBNS: 20 mM HEPES-KOH pH 7.9, 100 mM KOAc, 3.5 mM Mg(OAc) (magnesium acetate), 0.05% CHAPS, 2 mM DTT, 8% glycerol, BSA, tRNA, 25 C 2 h; filter binding: 25 mM …

{"Construct Sequence": "UGAGGUAGUAGGUUGUAUAGU / AAAAAAAAAAAAUCUACCUCU [let-7 / seed-matching target]", "Kd, pM": 5}
{"Construct Sequence": "UGAGGUAGUAGGUUGUAUAGU / ACUAUACAACCUACUACCUCA [let-7 / fully complementary target]", "Kd, pM": 2}

From: paper doi:10.1101/2024.11.16.623948
